Source: patent US20210230570

measured.on: Factor X (FX), P00742
Sequence (P00742 whole entry, looked up): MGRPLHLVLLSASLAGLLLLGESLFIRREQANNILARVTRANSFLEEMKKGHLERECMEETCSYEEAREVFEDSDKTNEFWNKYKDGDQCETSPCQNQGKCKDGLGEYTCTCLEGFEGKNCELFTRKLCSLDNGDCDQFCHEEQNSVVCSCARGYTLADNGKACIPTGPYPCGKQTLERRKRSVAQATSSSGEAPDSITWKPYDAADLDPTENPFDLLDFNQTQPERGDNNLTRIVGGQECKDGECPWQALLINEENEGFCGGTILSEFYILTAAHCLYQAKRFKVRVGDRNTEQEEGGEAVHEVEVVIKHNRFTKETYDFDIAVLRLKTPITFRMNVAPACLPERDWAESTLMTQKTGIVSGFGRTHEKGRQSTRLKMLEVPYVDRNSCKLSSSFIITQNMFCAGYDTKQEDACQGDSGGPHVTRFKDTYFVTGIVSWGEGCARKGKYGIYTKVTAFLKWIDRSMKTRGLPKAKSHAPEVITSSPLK
experimental.readout: KM (µM)
# output: bare number, implied unit µM

Form: protein = FIXa-R318Y/R338E/Y345A/R403E/E410N (protein) chain 1: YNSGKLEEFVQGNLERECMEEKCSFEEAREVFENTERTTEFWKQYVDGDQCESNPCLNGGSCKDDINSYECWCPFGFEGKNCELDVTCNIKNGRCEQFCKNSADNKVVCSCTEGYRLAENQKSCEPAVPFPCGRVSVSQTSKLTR chain 2: VVGGEDAKPGQFPWQVVLNGKVDAFCGGSIVNEKWIVTAAHCVETGVKITVVAGEHNIEETEHTEQKRNVIRIIPHHNYNAAINKYNHDIALLELDEPLVLNSYVTPICIADKEYTNIFLKFGSGYVSGWGRVFHKGYSALVLQYLRVPLVDRATCLESTKFTIANNMFCAGFHEGGRDSCQGDSGGPHVTEVEGTSFLTGIISWGEECAMKGKYGIYTKVSEYVNWIKNKTKLT ; KM = 0.0188
